- Tested system: T1, Nipah virus attachment (receptor-binding) glycoprotein (GP), wild type (Nipah virus; strain of the assayed …, UniProt Q9IH62)
- T1 construct: source: HEK 293-F FreeStyle, transiently transfected, purified from supernatant (Ni-NTA)
- Assay text: ELISA
- Experimental parameters: both partners purified
Property name: Kd (nM)
Please give a number only; it is taken to be in nM.

1) m102.4 VH I54A (antibody, V domains shown) VH: EVQVIQSGADVKKPGSSVKVSCKSSGGTFSKYAINWVRQAPGQGLEWMGGIIPALGIANYAQKFQGRVTITTDESTSTAYMELSSLRSEDTAVYYCARGWGREQLAPHPSQYYYYYYGMDVWGQGTTVTVSS VL: EIVMTQSPGTLSLAPGERATLSCWASQSVRNNYLAWYQQKPGQAPRLVIYNGSTRATGIPDRFSGSGSGTDFTLTISRLDPEDFAVYYCQQYGNSRRVTFGGGTKVEIK : 0.13
2) m102.4 VH Y112A (antibody, V domains shown) VH: EVQVIQSGADVKKPGSSVKVSCKSSGGTFSKYAINWVRQAPGQGLEWMGGIIPILGIANYAQKFQGRVTITTDESTSTAYMELSSLRSEDTAVYYCARGWGREQLAPHPSQAYYYYYGMDVWGQGTTVTVSS VL: EIVMTQSPGTLSLAPGERATLSCWASQSVRNNYLAWYQQKPGQAPRLVIYNGSTRATGIPDRFSGSGSGTDFTLTISRLDPEDFAVYYCQQYGNSRRVTFGGGTKVEIK : 0.11
3) m102.4 VH L55A (antibody, V domains shown) VH: EVQVIQSGADVKKPGSSVKVSCKSSGGTFSKYAINWVRQAPGQGLEWMGGIIPIAGIANYAQKFQGRVTITTDESTSTAYMELSSLRSEDTAVYYCARGWGREQLAPHPSQYYYYYYGMDVWGQGTTVTVSS VL: EIVMTQSPGTLSLAPGERATLSCWASQSVRNNYLAWYQQKPGQAPRLVIYNGSTRATGIPDRFSGSGSGTDFTLTISRLDPEDFAVYYCQQYGNSRRVTFGGGTKVEIK : 0.1

As a next step, examine the binder that follows.
[Q] // query Kd value for entry m102.4 VH Y114A (antibody, V domains shown) VH: EVQVIQSGADVKKPGSSVKVSCKSSGGTFSKYAINWVRQAPGQGLEWMGGIIPILGIANYAQKFQGRVTITTDESTSTAYMELSSLRSEDTAVYYCARGWGREQLAPHPSQYYAYYYGMDVWGQGTTVTVSS VL: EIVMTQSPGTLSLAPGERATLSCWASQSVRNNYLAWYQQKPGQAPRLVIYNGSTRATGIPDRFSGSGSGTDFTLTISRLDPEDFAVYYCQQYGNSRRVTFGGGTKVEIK
[A] 0.07
